Target: Metabotropic glutamate receptor 8 (Rattus norvegicus) (UniProt P70579)
Sequence (P70579 whole entry, looked up): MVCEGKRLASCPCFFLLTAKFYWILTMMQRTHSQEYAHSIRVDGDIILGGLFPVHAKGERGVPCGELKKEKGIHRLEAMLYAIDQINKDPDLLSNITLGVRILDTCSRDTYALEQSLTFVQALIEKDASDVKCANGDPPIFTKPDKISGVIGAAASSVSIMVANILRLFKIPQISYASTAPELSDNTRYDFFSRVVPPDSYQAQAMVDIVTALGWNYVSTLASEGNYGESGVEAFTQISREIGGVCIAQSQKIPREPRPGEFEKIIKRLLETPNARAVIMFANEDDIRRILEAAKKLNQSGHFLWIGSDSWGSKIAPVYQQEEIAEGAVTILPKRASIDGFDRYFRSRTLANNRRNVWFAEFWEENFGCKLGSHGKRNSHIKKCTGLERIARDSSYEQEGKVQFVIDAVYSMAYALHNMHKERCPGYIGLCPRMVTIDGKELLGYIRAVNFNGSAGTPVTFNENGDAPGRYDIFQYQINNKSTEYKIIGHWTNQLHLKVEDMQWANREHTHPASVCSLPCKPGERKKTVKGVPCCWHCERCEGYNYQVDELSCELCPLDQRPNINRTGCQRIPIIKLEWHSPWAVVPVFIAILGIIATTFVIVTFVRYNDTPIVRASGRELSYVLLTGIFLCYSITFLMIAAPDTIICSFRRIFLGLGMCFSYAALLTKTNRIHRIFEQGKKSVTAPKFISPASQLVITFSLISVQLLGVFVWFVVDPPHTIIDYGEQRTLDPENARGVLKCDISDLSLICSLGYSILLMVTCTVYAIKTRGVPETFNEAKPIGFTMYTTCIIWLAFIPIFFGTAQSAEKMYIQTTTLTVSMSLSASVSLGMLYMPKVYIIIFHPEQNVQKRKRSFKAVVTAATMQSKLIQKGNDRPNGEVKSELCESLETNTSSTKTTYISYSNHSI
Assay: mGluR8 Gi/Go-coupled signaling modulation – cell-based, rat, thallium flux, HTS, primary screen (AID 488969)
Settings: HEK293 rat mGluR8, GIRK (G protein-gated inwardly rectifying potassium channel) thallium flux, FluoZin2; at 10 µM; stronger effect = higher value; submaximal glutamate (EC20) added with thallium
The full ranking holds about 110,000 compounds; the median of “z-score” is about -0.1, and the highest 2% start at about 2. This excerpt belongs to a sample that is enriched for the highest values.
measurement_kind: z-score
Would you mind answering with just the numeric figure?

// known answers, use as guide
CCN1CCN(Cc2cccc(Oc3ccccc3)c2)CC1: 0.156
O=c1[nH]c(CN2CCc3ccccc3C2)nc2ccccc12: 0.446
O=C1/C(=C/c2cccnc2)Oc2cc(OS(=O)(=O)c3ccc(Cl)cc3)ccc21: 0.0689

Consider the molecule shown here: COc1cccc(C(=O)Cn2c(=O)n(CC3CCCO3)c(=O)c3ccccc32)c1 (configuration not stated) What is its recorded z-score? -0.719

z-score for CCN1CCN(Cc2cccc(Oc3ccc(Cl)cc3)c2)CC1 ? 0.924

// z-score lookup, key: COc1ccc2nc(C)cc(SCC(=O)N/N=C/c3ccccc3)c2c1 0.834

For CC1CCCN(Cc2cccc(Oc3ccccc3)c2)C1 (configuration not stated) , what is its reported z-score? 6.29
